Collected from the literature: IC50 of various compounds toward Non-receptor tyrosine-protein kinase TYK2 (Homo sapiens).

Compound | IC50
O=C(NCCC(F)(F)F)c1n[nH]c2c1CN(c1ncnc3[nH]ccc13)CC2 | 500 to 2000 nM
O=C(CN1CCN(c2ccccc2)CC1)Nc1cccc(-c2cnc3ccccc3n2)c1 | > 20000 nM
CC[C@@H](C1CCC1)n1cc(-c2nc(-c3cnn(C[C@@H](O)CO)c3)cn3nccc23)cn1 (single isomer, unassigned) | 10 to 100 nM
CC(C)n1cc(-c2nc(-c3cnn(C4CCNCC4)c3)cn3nccc23)cn1 | 100 to 1000 nM
CCC(CC)n1cc(-c2nc(-c3cnn(C4CN(C(=O)CN5CCCC5)C4)c3)cn3nccc23)cn1 | 10 to 100 nM
CCc1ccc(Cl)cc1-n1cc(-c2ncnn3cccc23)cc1C(N)=O | 27 nM
CN1CCN(c2ccc3cc2COCCCCNC(=O)c2ccc(c(N)c2)-c2ccnc(n2)N3)CC1 | 1000 to 10000 nM
CCCS(=O)(=O)N[C@H]1C[C@@H](Nc2c(-c3cc(C(=O)NC)ccn3)cnc3[nH]ccc23)C1 | 100 to 1000 nM
Cc1cc(Nc2ncc(C)c(N3CC(CC#N)(N4CCC(F)(F)CC4)C3)n2)sn1 | < 5 nM
NC(=O)c1cnc(Nc2ccc3c(c2)NCC(O)CO3)nc1Nc1ccccc1 (stereo not shown) | 10 to 100 nM
CN(C)C(=O)N1CC(CCF)(n2cc(-c3nc(-c4cnn(C)c4)cc4nccn34)cn2)C1 | > 1000 nM
CCC(CC)n1cc(-c2nc(-c3cnn([C@H]4CCC[C@@H]4O)c3)cn3nccc23)cn1 (single isomer, unassigned) | 10 to 100 nM
Cc1cc(Nc2ncc(C)c(N3CC(CC#N)(N4CCN(C)C(CCF)C4)C3)n2)sn1 (stereo not shown) | < 5 nM
Cn1cc(-c2cc3nccn3c(-c3cnn(C4(CC#N)CC5(CCOCC5)C4)c3)n2)cn1 | < 10 nM
CC(C)Oc1ccc2cc1COCCCCNC(=O)c1ccc(c([N+](=O)[O-])c1)-c1ccnc(n1)N2 | > 10000 nM
Cc1ccc2cc1COCCCCNC(=O)c1ccc(c(C)c1)-c1ccnc(n1)N2 | > 10000 nM

* * *

Collected from the literature: IC50 of various compounds toward Non-receptor tyrosine-protein kinase TYK2 (Homo sapiens, UniProt P29597).
Measured Attribute: IC50

Compound | Experimental Result
CCOCCC(C1CCC1)n1cc(-c2nc(-c3cnn(C)c3)cc3nccn23)cn1 (stereo not drawn) | 100 to 1000 nM
NC(=O)c1cc(-c2ncnc3[nH]ncc23)cn1-c1cc(C(F)(F)F)ccc1Cl | 58 nM
CCc1ccc(C(F)(F)F)cc1-c1[nH]c(-c2ncnc3[nH]ccc23)cc1C(=O)NC | 22 nM
O=C(Cn1cncn1)Nc1cccc(-c2cnc3ccccc3n2)c1 | > 50000 nM
CCc1cc(O)c(F)cc1-c1cc2[nH]nc(C(=O)NC)c2c(NCCc2ccc(O)cc2)n1 | 15.3 nM
CCC(CC)n1cc(-c2nc(-c3cnn(C4CCN(C(=O)NC)CC4)c3)cn3nccc23)cn1 | 10 to 100 nM
Cc1ncc(-c2cnc3[nH]ccc3c2N[C@@H]2CCCN(C(=O)CC#N)C2)s1 | 100 to 1000 nM
Cn1cc(-c2cc3nccn3c(-c3cnn(C(CCO)C4CC4)c3)n2)cn1 (stereo not drawn) | 100 to 1000 nM
COc1cnc2nc1-c1ccc(cc1)C(=O)NCCCCOCc1cc(ccc1N1CCOCC1)N2 | 101 to 1000 nM
Cc1cc(Nc2nc(N[C@@H]3C[C@H]4CC[C@@H](C3)N4CCC#N)c3cccnc3n2)n[nH]1 | 21.6 nM
CC(C)C[C@@H](C)n1cc(-c2nc(-c3cnn(C[C@@H](O)CO)c3)cn3nccc23)cn1 | 100 to 1000 nM
CCOC(=O)Cn1cc(Nc2ncc3ccn(CC4CC5CCC4C5)c3n2)cn1 (stereo not drawn) | < 100 nM
Cc1cc(Nc2cc3ncccc3c(N[C@@H]3C[C@@H]4CN(CCC#N)C[C@@H]4C3)n2)n[nH]1 | 4.44 nM
Cn1cc(-c2cc3nccn3c(-c3cnn(C(CC(N)=O)C4CC4)c3)n2)cn1 (stereo not drawn) | 100 to 1000 nM
C=CCC1(n2cc(-c3nc(-c4cnn(C)c4)cc4nccn34)cn2)CN(S(=O)(=O)C(F)(F)F)C1 | < 10 nM
O=C(Nc1cccc(-c2cnc3ccccc3n2)c1)c1ccco1 | > 50000 nM
CC(=O)N1CC(CCF)(n2cc(-c3nc(-c4cnn(C)c4)cc4nccn34)cn2)C1 | > 1000 nM
O=C(Nc1nc2cccc([C@@H]3CCC4(CCN(C(=O)[C@@H]5CC5(F)F)CC4)C3)n2n1)C1CC1 | 570 nM
O=C1NCCCCOCc2cc(ccc2Oc2ccc(F)cc2)Nc2nccc(n2)-c2ccc1cc2[N+](=O)[O-] | > 10000 nM
CC(C1CC1)n1cc(-c2nc(-c3cnn(C)c3)cc3nccn23)cn1 (stereo not drawn) | 10 to 100 nM
Cc1cc(Nc2cc3nccn3c(N[C@@H]3C[C@H]4CC[C@@H](C3)N4CCC#N)n2)n[nH]1 | 5.77 nM
Cn1cc(-c2cc3nccn3c(-c3cnn(C4(CC#N)CCN(C(=O)OC(C)(C)C)CC4)c3)n2)cn1 | 100 to 1000 nM
N#CCC(=O)N1CCC[C@@H](Nc2c(-c3nccs3)cnc3[nH]ccc23)C1 | ≤ 10 nM
N#CCC(=O)N1CCC[C@@H](Nc2c(C#N)cnc3[nH]ccc23)C1 | 10 to 100 nM
CC(C)S(=O)(=O)N1CC(CC#N)(n2cc(-c3nc(-c4cnn(C)c4)cn4nccc34)c(N)n2)C1 | 2.1 nM
NC(=O)c1cnc(Nc2ccc3c(c2)NCC(O)CO3)nc1NCc1ccccc1 (stereo not drawn) | < 10 nM
Cc1cnc(Nc2ccc(N3CCOCC3)nc2)nc1N1CC(CCC#N)C1 | < 100 nM
COCCCNc1nc(Nc2ccc3c(c2)NC[C@H](O)CO3)ncc1C(N)=O | < 10 nM
COC(=O)c1cc2ccc1C(=O)NCCCc1cccc(c1)Nc1nc(ncc1C)Nc1cc-2cnc1F | 101 to 1000 nM
Cc1cnc(Nc2ccc(N3CCOCC3)cc2)nc1N1CC(CC#N)(N2CCN(C)CC2)C1 | < 10 nM
Nc1cc2ccc1-c1ccnc(n1)Nc1cccc(c1)COCCCCNC2=O | 1000 to 10000 nM
CCN(c1nccnc1CNc1nc(-c2cc(F)c(O)cc2CC(F)(F)F)cc2[nH]nc(C(=O)NC)c12)S(C)(=O)=O | 148 nM
O=S(=O)(NC12CC(n3cnc4cnc5[nH]ccc5c43)(C1)C2)N1CC(F)(F)C1 | 33.5 nM
